# target.desc: EGFR (UniProt P00533)
# Sequence (P00533 whole entry, looked up): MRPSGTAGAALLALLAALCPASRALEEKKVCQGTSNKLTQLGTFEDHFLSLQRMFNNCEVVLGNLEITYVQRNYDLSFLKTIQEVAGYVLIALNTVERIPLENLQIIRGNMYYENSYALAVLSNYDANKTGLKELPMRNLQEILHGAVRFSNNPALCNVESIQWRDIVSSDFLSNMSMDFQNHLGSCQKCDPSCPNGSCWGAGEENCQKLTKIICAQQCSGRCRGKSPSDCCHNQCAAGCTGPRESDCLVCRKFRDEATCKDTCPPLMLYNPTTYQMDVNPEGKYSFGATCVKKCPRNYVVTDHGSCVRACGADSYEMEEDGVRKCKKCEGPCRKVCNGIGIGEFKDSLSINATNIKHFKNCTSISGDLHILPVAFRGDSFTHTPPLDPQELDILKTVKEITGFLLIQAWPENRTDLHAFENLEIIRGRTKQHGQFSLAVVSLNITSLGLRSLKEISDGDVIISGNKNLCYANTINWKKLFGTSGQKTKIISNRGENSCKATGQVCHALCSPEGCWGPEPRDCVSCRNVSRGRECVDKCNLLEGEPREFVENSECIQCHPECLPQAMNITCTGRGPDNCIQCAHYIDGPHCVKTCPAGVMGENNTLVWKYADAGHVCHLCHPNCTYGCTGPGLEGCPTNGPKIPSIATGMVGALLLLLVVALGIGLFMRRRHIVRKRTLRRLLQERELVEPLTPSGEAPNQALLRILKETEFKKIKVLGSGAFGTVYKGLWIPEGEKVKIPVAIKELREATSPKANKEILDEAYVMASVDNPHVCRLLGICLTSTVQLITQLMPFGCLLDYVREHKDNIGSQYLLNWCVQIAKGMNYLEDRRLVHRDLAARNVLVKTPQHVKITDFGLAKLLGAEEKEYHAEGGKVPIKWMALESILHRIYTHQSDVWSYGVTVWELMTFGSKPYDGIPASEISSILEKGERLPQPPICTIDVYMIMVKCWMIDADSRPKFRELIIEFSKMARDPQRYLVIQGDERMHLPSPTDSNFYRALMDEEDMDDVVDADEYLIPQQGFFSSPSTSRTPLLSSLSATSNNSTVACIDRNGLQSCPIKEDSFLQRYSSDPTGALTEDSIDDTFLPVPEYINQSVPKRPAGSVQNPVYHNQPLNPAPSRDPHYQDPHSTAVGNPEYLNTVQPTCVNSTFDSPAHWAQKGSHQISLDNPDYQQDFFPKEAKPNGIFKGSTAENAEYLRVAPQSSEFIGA
# condition.parameters: concentration not given here
# reported inhibition; entries follow
Answer in %, number only, no unit symbol.

Example molecules with recorded inhibition:
molecule	inhibition (%)
O=c1ccc2ccc(O)c(O)c2o1	99.6
O=c1cc(O)c2ccccc2o1	0
OC1C=Cc2ccccc2O1 (stereo unspecified)	0
O=c1ccc2cc(O)c(O)cc2o1	0
O=c1ccc2ccc(O)cc2o1	0

Would you kindly look at the next entry?
Answer with reported inhibition of O=c1ccc2ccccc2o1
0

Just for reference, the Kinase Knowledgebase extract (Sharma et al. 2016) is where these values come from.
